- targetEntity: Av-HBP (SEQ. ID. 6), semi-purified recombinant protein, Amblyomma variegatum
- conditionsUsed: read-out: equilibrium dissociation constant (Kd) for histamine; results not shown
pKd: −log10 of the molar value.
valueKind: pKd

Prompt line: Please report the recorded pKd for NCCc1c[nH]cn1 .
Response line: ~8.14

====

- targetEntity: recombinant D.RET6 (SEQ ID 4), Dermacentor reticulatus histamine-binding protein (Dermacentor reticulatus, UniProt Q8WSK7)
- Sequence (Q8WSK7 entry or part of it): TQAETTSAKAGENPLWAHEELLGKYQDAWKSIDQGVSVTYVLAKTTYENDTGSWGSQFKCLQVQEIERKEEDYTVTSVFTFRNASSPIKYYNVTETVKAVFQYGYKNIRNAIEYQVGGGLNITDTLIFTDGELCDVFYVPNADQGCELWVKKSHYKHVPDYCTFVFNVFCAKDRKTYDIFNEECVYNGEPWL
- methodDescription: biochemical
- conditionsUsed: read-out: Kd, second (lower affinity) histamine binding site; with 23.8µM serotonin
- Protocol: The recombinant D.RET6 was diluted with 1.5% γ-globulin (Sigma) and used in one set of experiments. […] Three millilitres of liquid scintillation cocktail (Beckman) were added and the radioactivity measured using a liquid scintillation counter (Wallac, 1217 Rackbeta). […]
valueKind: Kd (nM)
Write the answer as a number in nM, unit excluded.

Prompt line: Please report the recorded Kd for NCCc1c[nH]cn1 [histamine] .
Response line: 1000

====

- targetEntity: recombinant D.RET6 (SEQ ID 4), Dermacentor reticulatus histamine-binding protein (Dermacentor reticulatus, UniProt Q8WSK7)
- methodDescription: biochemical
- conditionsUsed: read-out: Kd, second (lower affinity) histamine binding site; final concentration of 2.38µM serotonin
valueKind: pKd
Value format note: pKd is -log10 of concentration (mol/L); just state the number.

Prompt line: Please report the recorded pKd for NCCc1c[nH]cn1 .
Response line: 6.00

====

- targetEntity: recombinant D.RET6 (SEQ ID 4), Dermacentor reticulatus histamine-binding protein (Dermacentor reticulatus, UniProt Q8WSK7)
- methodDescription: biochemical
- conditionsUsed: Kd, first (higher affinity) histamine binding site, with 23.8µM serotonin
valueKind: Kd (nM)
Write the answer as a number in nM, unit excluded.

Prompt line: Please report the recorded Kd for NCCc1c[nH]cn1 .
Response line: 1.3
